- target_of_assay: Carbonic anhydrase 2 (Homo sapiens) (UniProt P00918)
- protocol_description: CAII small-molecule binders, profiling panel, biochemical, small-molecule microarray, Alexa647-labelled CAII (AID 1122)
- condition_context: CAII-A647 binding fluorescence, higher = more signal
Each record here notes measured composite z-score.

compound	composite z-score
Cc1ccc(S[C@]2(C(=O)NC(C)C)CC(=O)N(C(C)C)[C@@H]2c2ccc(CO)cc2I)cc1	0.326
COCCOC(=O)N1C(=O)[C@@]2(c3cc(C#CCNC(N)=O)ccc31)[C@H](c1ccc(O)cc1)N1[C@H](c3ccccc3)[C@H](c3ccccc3)OC(=O)[C@H]1[C@@H]2C(=O)N1CCN(c2ncccn2)CC1	0.506
CCCCCN1CC=CC23O[C@@H]4/C=C\CCC(C)OC(=O)C4[C@H]2C(=O)N(CCCCCCO)[C@@H]3C1=O (some centres undefined)	0.781
C=C(C(=O)CC[C@@H](OC(=O)c1ccccc1-c1ccccc1C(=O)O)c1ccccc1OCCO)C(C)C	0.734

Values from PubChem BioAssay
